Parameter inhibition: see the listing below.
- tested-system: Phosphorylase b kinase gamma catalytic chain, skeletal muscle/heart isoform (Homo sapiens) (UniProt Q16816);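 further: each value is a mean percent inhibition of PHKG1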
- Sequence (Q16816 whole entry, looked up, canonical isoform): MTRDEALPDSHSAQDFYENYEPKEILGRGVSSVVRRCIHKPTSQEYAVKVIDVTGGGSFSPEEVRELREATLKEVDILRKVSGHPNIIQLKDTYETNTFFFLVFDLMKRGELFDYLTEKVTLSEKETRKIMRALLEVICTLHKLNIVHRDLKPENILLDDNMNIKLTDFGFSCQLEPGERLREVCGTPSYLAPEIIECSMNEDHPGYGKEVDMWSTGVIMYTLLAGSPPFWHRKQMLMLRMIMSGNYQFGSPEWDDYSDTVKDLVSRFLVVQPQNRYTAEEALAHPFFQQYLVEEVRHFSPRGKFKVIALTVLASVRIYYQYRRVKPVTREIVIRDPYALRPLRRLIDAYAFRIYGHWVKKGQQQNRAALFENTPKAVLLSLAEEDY
- assay-context: at 1 µM
result-type: inhibition (%)

>>> value_reported("Fc1cccc(COc2ccc(Nc3ncnc4sc(-c5cccs5)cc34)cc2Cl)c1")
6.77
>>> value_reported("NCc1ccc(-c2nc(-c3ccc(Cl)c(O)c3)c(-c3ccncc3)[nH]2)cc1")
3.18
>>> value_reported("CS(=O)(=O)CCNCc1ccc(-c2ccc3ncnc(Nc4ccc(OCc5ccccc5)c(Cl)c4)c3c2)o1")
6.13
>>> value_reported("Fc1cccc(COc2ccc(Nc3ncnc4cc(-c5ccc[nH]5)sc34)cc2Cl)c1")
3.62
>>> value_reported("CC(C)=Cc1cccc2c1/C(=N/Nc1ccc(S(N)(=O)=O)cc1)C(=O)N2")
26.6
>>> value_reported("CC1=C(C(=O)Nc2ccc3[nH]ncc3c2)C(c2ccc(F)cc2)NC(=O)N1 (centres undefined)")
4.43
>>> value_reported("Nc1ncnc2occ(-c3ccc(NC(=O)Nc4cc(C(F)(F)F)cc(C(F)(F)F)c4)cc3)c12")
2.55
>>> value_reported("NS(=O)(=O)c1cccc(-c2ccc3c(NC(=O)C4CC4)n[nH]c3c2)c1")
2.11
>>> value_reported("CNC(=O)c1cncc(/C=C/c2c(Cl)cccc2Cl)c1")
8.72
>>> value_reported("COc1ccccc1Nc1ncc(-c2ccccc2)o1")
13.1
>>> value_reported("Cn1cc(C=C2C(=O)Nc3cccnc32)c2ccccc21")
20.8
>>> value_reported("Cc1nn(C)c2cc(N(C)c3ccnc(Nc4cccc(S(N)(=O)=O)c4)n3)ccc12")
8.04
>>> value_reported("CCn1c(-c2nonc2N)nc2cncc(C(=O)N3CC[C@H](N)C3)c21")
6.32
>>> value_reported("COc1cc2c(cc1Nc1nc(N3CCc4ccccc43)c3cc[nH]c3n1)N(C(=O)CN(C)C)CC2")
3.14
>>> value_reported("CCCN1CCC(Oc2cc(Nc3nc(Nc4cccc(F)c4C(N)=O)c4cc[nH]c4n3)c(OC)cc2Cl)CC1")
24.2
>>> value_reported("CCc1cccc(NC(=O)Nc2ccc(Oc3ccc4nc(NC(=O)OC)[nH]c4c3)cc2)c1")
2.94
>>> value_reported("CCN1CCC(CC(=O)Nc2n[nH]c3nc(-c4cccs4)c(Br)cc23)CC1")
5.36
>>> value_reported("CCn1c(-c2nonc2N)nc2ccncc21")
2.74
>>> value_reported("CCCN1CCC=C(c2ccc(Nc3nc(Nc4ccccc4C(N)=O)c4cc[nH]c4n3)c(C)c2)C1")
48.2
>>> value_reported("COc1ccc(-c2coc3ncnc(N)c23)cc1")
6.53
>>> value_reported("NS(=O)(=O)c1ccc(N/N=C2\\C(=O)Nc3ccc(C(=O)NCCc4c[nH]cn4)cc32)cc1")
58.7
>>> value_reported("CS(=O)(=O)Nc1ccc(N/C=C2\\C(=O)Nc3ccccc32)cc1")
31.5
>>> value_reported("CS(=O)(=O)CCNCc1nc(-c2ccc3ncnc(Nc4ccc(F)c(Cl)c4)c3c2)cs1")
4.69
>>> value_reported("O=C1NC(=O)C(N2CCc3ccccc32)=C1c1ccc(Cl)cc1")
5.29
>>> value_reported("COC(=O)Nc1nc2cc(Oc3cccc(NC(=O)Nc4cc(C(F)(F)F)ccc4F)c3)ccc2[nH]1")
2.22
>>> value_reported("Cc1cccc(-c2n[nH]cc2-c2ccc3ncccc3n2)n1")
2.02
>>> value_reported("COc1cccc(-n2ncc3c(N/N=C/c4cccc(F)c4)ncnc32)c1")
9
>>> value_reported("COc1cc2ncn(-c3cc(O[C@@H](C)c4ccccc4Cl)c(C(N)=O)s3)c2cc1OC")
8.24
>>> value_reported("CCn1c(-c2nonc2N)nc2c(C#CC(C)(C)O)nc(OC[C@@H](N)c3ccccc3)cc21")
4.71
>>> value_reported("COc1cc(C=NNc2ncnc3c2cnn3-c2ccccc2)ccc1O")
11.3
>>> value_reported("CS(=O)(=O)CCN(CC#N)Cc1ccc(-c2ccc3ncnc(Nc4ccc(OCc5cccc(F)c5)c(Cl)c4)c3c2)o1")
5.37
>>> value_reported("O=C1Nc2ccc(C(=O)c3ccco3)cc2C1=Cc1cc(Cl)c(O)c(Cl)c1")
9.29
>>> value_reported("O=C1NC(=O)C(c2cccc(Cl)c2)=C1Nc1ccc(O)c(Cl)c1")
6.07
>>> value_reported("Nc1nc(-c2ccccn2)c(-c2ccc3ncccc3n2)s1")
4.27
>>> value_reported("CN(C)c1cc2c(Nc3ccc4nc(Cc5ccccc5)[nH]c4c3)ncnc2cn1")
13.4
>>> value_reported("CCn1c(-c2nonc2N)nc2cncc(C(=O)N3CCNCC3)c21")
4.51
>>> value_reported("O=C(Nc1n[nH]c2nc(-c3ccco3)c(Br)cc12)C1CC1")
2.36
>>> value_reported("NC(=O)c1cccc(Nc2nccc(Nc3cccc4[nH]ncc34)n2)c1")
12.6
>>> value_reported("COc1cc2ncn(-c3cc(O[C@H](C)c4ccccc4Cl)c(C(N)=O)s3)c2cc1OC")
6.72

----------
Quick reference for inhibition among some compounds
- tested-system: Casein kinase I isoform gamma-3 (Homo sapiens);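 further: reported value is the mean percent inhibition of the kinase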
- assay-context: at 0.1 µM
result-type: inhibition (%)

>>> value_reported("O=C1NC(=O)C(c2ccccc2Cl)=C1Nc1cccc(O)c1")
0.98
>>> value_reported("CCCN1CCC(Oc2cc(Nc3nc(Nc4cccc(F)c4C(N)=O)c4cc[nH]c4n3)c(OC)cc2Cl)CC1")
-0.08
>>> value_reported("CCn1c(-c2nonc2N)nc2cncc(C(=O)N3CC[C@H](N)C3)c21")
2.49
>>> value_reported("Cc1cccc(-c2n[nH]cc2-c2ccc3ncccc3n2)n1")
0.08
>>> value_reported("Nc1nc(-c2ccccn2)c(-c2ccc3ncccc3n2)s1")
4
>>> value_reported("Cn1cc(C=C2C(=O)Nc3cccnc32)c2ccccc21")
1.67
>>> value_reported("O=C(Nc1n[nH]c2nc(-c3ccco3)c(Br)cc12)C1CC1")
2.64
>>> value_reported("Nc1ncnc2occ(-c3ccc(NC(=O)Nc4cc(C(F)(F)F)cc(C(F)(F)F)c4)cc3)c12")
1.91
>>> value_reported("Fc1cccc(COc2ccc(Nc3ncnc4cc(-c5ccc[nH]5)sc34)cc2Cl)c1")
-2.89
>>> value_reported("Cc1nn(C)c2cc(N(C)c3ccnc(Nc4cccc(S(N)(=O)=O)c4)n3)ccc12")
0.54
>>> value_reported("CN1CCC(C(=O)Nc2n[nH]c3nnc(-c4ccccc4)cc23)CC1")
2.15
>>> value_reported("CCN1CCC(CC(=O)Nc2n[nH]c3nc(-c4cccs4)c(Br)cc23)CC1")
-2.3
>>> value_reported("CS(=O)(=O)CCN(CC#N)Cc1ccc(-c2ccc3ncnc(Nc4ccc(OCc5cccc(F)c5)c(Cl)c4)c3c2)o1")
-1.66
>>> value_reported("CS(=O)(=O)CCNCc1nc(-c2ccc3ncnc(Nc4ccc(F)c(Cl)c4)c3c2)cs1")
2.39
>>> value_reported("CCCN1CCC=C(c2ccc(Nc3nc(Nc4ccccc4C(N)=O)c4cc[nH]c4n3)c(C)c2)C1")
36.1
>>> value_reported("COc1cccc(-n2ncc3c(N/N=C/c4cccc(F)c4)ncnc32)c1")
-1.77
>>> value_reported("COc1ccc2cc(-c3c(-c4ccncc4)nc(-c4ccc([S+](C)[O-])cc4)n3C)ccc2c1 (stereo not given)")
1.16
>>> value_reported("c1cnn2ncc(-c3ccnc(Nc4ccc5c(c4)OCCO5)n3)c2c1")
6.57
>>> value_reported("CCn1c(-c2nonc2N)nc2c(C#CC(C)(C)O)nc(OC[C@@H](N)c3ccccc3)cc21")
-1.72
>>> value_reported("CS(=O)(=O)Nc1ccc(N/C=C2\\C(=O)Nc3ccccc32)cc1")
0.3

----------
- tested-system: RAC-beta serine/threonine-protein kinase (Homo sapiens) (UniProt P31751);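 further: reported figure is the mean percent inhibition of AKT2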
- Sequence (P31751 whole entry): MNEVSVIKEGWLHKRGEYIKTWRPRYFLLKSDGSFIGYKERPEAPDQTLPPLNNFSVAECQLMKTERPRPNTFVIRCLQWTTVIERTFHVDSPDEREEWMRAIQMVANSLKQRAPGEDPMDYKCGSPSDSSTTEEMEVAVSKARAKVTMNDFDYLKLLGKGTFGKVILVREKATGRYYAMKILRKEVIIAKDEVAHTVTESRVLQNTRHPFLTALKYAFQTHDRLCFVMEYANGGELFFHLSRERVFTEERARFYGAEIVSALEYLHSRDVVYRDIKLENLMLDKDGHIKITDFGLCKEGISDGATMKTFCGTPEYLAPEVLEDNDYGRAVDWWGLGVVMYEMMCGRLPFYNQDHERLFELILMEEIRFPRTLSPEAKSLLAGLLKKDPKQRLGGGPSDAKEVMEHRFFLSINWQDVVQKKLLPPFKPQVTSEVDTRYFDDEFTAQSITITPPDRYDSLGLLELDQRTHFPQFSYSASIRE
- assay-context: at 0.1 µM
result-type: inhibition (%)

>>> value_reported("COc1cc2ncn(-c3cc(O[C@H](C)c4ccccc4Cl)c(C(N)=O)s3)c2cc1OC")
2.49
>>> value_reported("CCn1c(-c2nonc2N)nc2cncc(C(=O)N3CC[C@H](N)C3)c21")
3.72
>>> value_reported("Cc1nn(C)c2cc(N(C)c3ccnc(Nc4cccc(S(N)(=O)=O)c4)n3)ccc12")
1.6
>>> value_reported("CS(=O)(=O)CCNCc1ccc(-c2ccc3ncnc(Nc4ccc(OCc5ccccc5)c(Cl)c4)c3c2)o1")
0.26
>>> value_reported("CCCN1CCC(Oc2cc(Nc3nc(Nc4cccc(F)c4C(N)=O)c4cc[nH]c4n3)c(OC)cc2Cl)CC1")
1.14
>>> value_reported("NS(=O)(=O)c1cccc(-c2ccc3c(NC(=O)C4CC4)n[nH]c3c2)c1")
-4.21
>>> value_reported("COc1cc2ncn(-c3cc(OCc4ccccc4Cl)c(C(N)=O)s3)c2cc1OC")
-0.21
>>> value_reported("Cc1ccc(C(=O)NC2CCCCC2)cc1-c1ccc(C(=O)NCC2CC2)cc1")
1.52
>>> value_reported("COC(=O)Nc1nc2cc(Oc3ccc(NC(=O)Nc4cccc(C(=O)O)c4)cc3)ccc2[nH]1")
-3.47
